target_system: Thymidylate synthase (Homo sapiens, UniProt P04818)
Sequence (P04818 whole entry): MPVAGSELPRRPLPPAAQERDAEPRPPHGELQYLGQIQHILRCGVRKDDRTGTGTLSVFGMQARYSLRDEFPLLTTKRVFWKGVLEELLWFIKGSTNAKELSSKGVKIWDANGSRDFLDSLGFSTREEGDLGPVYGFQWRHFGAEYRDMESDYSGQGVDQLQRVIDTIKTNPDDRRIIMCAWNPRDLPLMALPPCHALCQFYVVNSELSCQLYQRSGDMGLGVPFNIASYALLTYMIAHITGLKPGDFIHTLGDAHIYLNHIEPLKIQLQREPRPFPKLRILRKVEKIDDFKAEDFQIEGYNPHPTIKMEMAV
pIC50: −log10 of the molar value.
measured_attribute: pIC50

Cc1nc2ccc(CNc3cnc(C(=O)N[C@@H](CCC(=O)O)C(=O)O)s3)cc2c(=O)[nH]1 | 5.15
COCCN(Cc1ccc2nc(C)[nH]c(=O)c2c1)c1ccc(C(=O)N[C@@H](CCC(=O)O)C(=O)O)cc1 | 4.79
Cc1nc2ccc(CN(CCF)c3ccc(C(=O)N[C@@H](CCC(=O)O)C(=O)O)cc3)cc2c(=O)[nH]1 | 6.62
COCCCN(Cc1ccc2nc(C)[nH]c(=O)c2c1)c1ccc(C(=O)N[C@@H](CCC(=O)O)C(=O)O)cc1 | 4.89
C#CCN(Cc1ccc2nc[nH]c(=O)c2c1)c1ccc(C(=O)N[C@@H](CCC(=O)O)C(=O)O)c(F)c1 | 7.24

(P) Cc1nc2ccc(CNc3ccc(C(=O)N[C@@H](CCC(=O)O)C(=O)O)cc3)cc2c(=O)[nH]1
(Q) CCN(Cc1ccc2nc(C)[nH]c(=O)c2c1)c1ncc(C(=O)N[C@@H](CCC(=O)O)C(=O)O)s1
In the pair P and Q , the larger recorded pIC50 belongs to which? // return label of chosen record
Q
(Q: 6.12, P: 5.35)

(P) Cc1nc2ccc(CN(C)c3ccc(C(=O)N[C@@H](CCC(=O)O)C(=O)O)cn3)cc2c(=O)[nH]1
(Q) Cc1nc2ccc(CN(C)c3ccc(C(=O)N[C@@H](CCC(=O)O)C(=O)O)c(N)c3)cc2c(=O)[nH]1
(R) Cc1nc2ccc(CN(C)c3ccc(C(=O)N[C@@H](CCC(=O)O)C(=O)O)c(F)c3)cc2c(=O)[nH]1
(S) C#CCN(Cc1ccc2nc(OC)[nH]c(=O)c2c1)c1ccc(C(=O)N[C@@H](CCC(=O)O)C(=O)O)c(F)c1
(T) C#CCN(Cc1ccc2nc(N)[nH]c(=O)c2c1)c1ccc(C(=O)N[C@@H](CCC(=O)O)C(=O)O)c(F)c1
Rank by pIC50 (largest to smallest). Enter labels, ranked according to the request.
T, S, R, Q, P
(T: 8.05, S: 7.44, R: 6.92, Q: 6.07, P: 5.37)

(1) Cc1nc2ccc(CN(CCF)c3ccc(C(=O)N[C@@H](CCC(=O)O)C(=O)O)s3)cc2c(=O)[nH]1
(2) Cc1nc2ccc(CN(CCF)c3ccc(C(=O)N[C@@H](CCC(=O)O)C(=O)O)nc3)cc2c(=O)[nH]1
(3) Cc1nc2ccc(CN(CCF)c3ccc(C(=O)N[C@@H](CCC(=O)O)C(=O)O)cc3F)cc2c(=O)[nH]1
(4) Cc1nc2ccc(CN(C)c3ccc(C(=O)N[C@@H](CCC(=O)O)C(=O)O)nc3)cc2c(=O)[nH]1
(5) C#CCN(Cc1ccc2nc(C)[nH]c(=O)c2c1)c1ccc(C(=O)N[C@@H](CCC(=O)O)C(=O)O)c(O)c1
Rank by pIC50 (largest to smallest). Enter labels, ranked according to the request.
5, 2, 4, 1, 3

(A) CCN(Cc1ccc2nc(C)[nH]c(=O)c2c1)c1ccc(C(=O)N[C@@H](CCC(=O)O)C(=O)O)c(Cl)c1
(B) Cc1nc2ccc(CN(CCO)c3cnc(C(=O)N[C@@H](CCC(=O)O)C(=O)O)s3)cc2c(=O)[nH]1
In the pair A and B , the larger recorded pIC50 belongs to which? // return label of chosen record
A

====

pIC50: −log10 of the molar value.
Below are compounds with their pIC50 as measured on Thymidylate synthase (Homo sapiens).
measured_attribute: pIC50

Example compounds with recorded pIC50:
Cc1nc2ccc(CN(CCBr)c3ccc(C(=O)N[C@@H](CCC(=O)O)C(=O)O)cc3)cc2c(=O)[nH]1 | 5.89
Cc1nc2ccc(CN(CCCO)c3cnc(C(=O)N[C@@H](CCC(=O)O)C(=O)O)s3)cc2c(=O)[nH]1 | 5.76
C#CCN(Cc1ccc2nc(C)[nH]c(=O)c2c1)c1ccc(C(=O)N[C@@H](CCC(=O)O)C(=O)O)s1 | 6.36
CCN(Cc1ccc2nc(C)[nH]c(=O)c2c1)c1nnc(C(=O)N[C@@H](CCC(=O)O)C(=O)O)s1 | 6.03
C#CCN(Cc1ccc2nc(C)[nH]c(=O)c2c1)c1ccc(C(=O)N[C@@H](CCC(=O)O)C(=O)O)nc1 | 7.40

(P) Cc1nc2ccc(CN(CCCO)c3ccc(C(=O)N[C@@H](CCC(=O)O)C(=O)O)s3)cc2c(=O)[nH]1
(Q) CCN(Cc1ccc2nc(C)[nH]c(=O)c2c1)c1ccc(C(=O)N[C@@H](CCC(=O)O)C(=O)O)c(C)c1
(R) CCN(Cc1ccc2nc(C)[nH]c(=O)c2c1)c1ccc(C(=O)N[C@@H](CCC(=O)O)C(=O)O)c(F)c1
(S) Cc1nc2ccc(CNc3ccc(C(=O)N[C@@H](CCC(=O)O)C(=O)O)s3)cc2c(=O)[nH]1
Rank by pIC50 (largest to smallest). Enter labels, ranked according to the request.
R, Q, P, S
(R: 7.35, Q: 6.50, P: 5.47, S: 4.61)

Data provenance: ChEMBL document CHEMBL1157058
